target: human PD-1 expressed on cells (human, UniProt Q15116 25-288); test: cell-based or functional assay
Sequence (Q15116 25-288): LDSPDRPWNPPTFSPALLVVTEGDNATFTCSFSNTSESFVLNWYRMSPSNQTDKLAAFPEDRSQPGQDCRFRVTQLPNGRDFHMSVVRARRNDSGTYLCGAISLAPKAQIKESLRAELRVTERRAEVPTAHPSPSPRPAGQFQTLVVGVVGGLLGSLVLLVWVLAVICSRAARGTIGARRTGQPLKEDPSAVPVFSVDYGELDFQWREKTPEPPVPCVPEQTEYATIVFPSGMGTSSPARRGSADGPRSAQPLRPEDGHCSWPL

| Binder | Fold induction [fold] |
| --- | --- |
| 31B1 (antibody, V domains shown, also called 780_38; 33B1 and 31B2 (apparent misprints)) VH: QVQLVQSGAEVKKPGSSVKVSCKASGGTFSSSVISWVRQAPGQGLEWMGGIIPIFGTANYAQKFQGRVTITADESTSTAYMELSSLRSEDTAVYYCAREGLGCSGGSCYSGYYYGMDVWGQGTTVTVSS VL: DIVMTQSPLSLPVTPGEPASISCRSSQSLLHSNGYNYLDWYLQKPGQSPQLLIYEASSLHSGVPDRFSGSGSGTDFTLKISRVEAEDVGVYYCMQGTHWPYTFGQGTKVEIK | 6.48 |
